system: P388 leukemia ip, CD2F1 mice, survival T/C; assay: NCI In Vivo Anticancer Drug Screen. Data for tumor model P388 Leukemia (intraperitoneal) in CD2F1 (CDF1) mice; conditions: endpoint: median survival time; dose: 25.0 mg/kg/injection; schedule: Q04DX003 (ip); vehicle: Klucel (hydroxypropylcellulose) (HPC); higher = longer survival
Inconclusive results and toxic doses are left out.
Assay readout: T/C

compound="CCC1(O)CC(OC2CC(N(C)C)C(OC3CC(O)C(OC4CC(O)C(O)C(C)O4)C(C)O3)C(C)O2)c2c(cc3c(c2O)C(=O)c2c(O)ccc(O)c2C3=O)C1C(=O)OC (stereo not given)" measured="118 % of control"
compound=Cc1ccc(/C=C2/C/C(=C\c3ccc(C)cc3)C2=O)cc1 measured="92 % of control"
compound=CS/C(=C1/C(=O)N(c2ccccc2)N=C1c1ccc(Cl)cc1)N1CC1 measured="96 % of control"

Below is a list of compounds. For each, state its recorded T/C.
1. O=C1CC(c2ccccc2)C(c2ccccc2)CO1 (stereo not given)
2. O=C(C#Cc1ccccc1)c1cccnc1

Response line:
1. 91 % of control
2. 107 % of control

---

system: P388 leukemia ip, CD2F1 mice, survival T/C; experiment: NCI In Vivo Anticancer Drug Screen. Data for tumor model P388 Leukemia (intraperitoneal) in CD2F1 (CDF1) mice; details: endpoint: median survival time; dose: 400.0 mg/kg/injection; schedule: Q04DX002 (ip); vehicle: saline with Tween-80; higher = longer survival
Inconclusive results and toxic doses are left out.
Assay readout: T/C

Solved cases (4 shown):
compound=O=C(O)c1nn(-c2ccccc2)c2c1CS(=O)(=O)c1ccccc1-2 measured="104 % of control"
compound="CC(=O)OCC1OC(Nc2[nH]c(=O)[nH]c(=O)c2C(=O)CCl)C(OC(C)=O)C(OC(C)=O)C1OC(C)=O (stereo not given)" measured="99 % of control"
compound=CCCCCCn1c(Cl)c(C(=O)O)c2ccccc21 measured="95 % of control"
compound="C=CCC(C(=C)Sc1ccccc1)S(=O)(=O)c1ccccc1 (stereo not given)" measured="105 % of control"

Turning to the following compound.
Prompt line: Output T/C of COc1cc(OC)cc(C2OC(=O)c3c(OC)cc(C)cc32)c1 (stereo not given)
Response line: 90 % of control

---

system: P388 leukemia ip, CD2F1 mice, survival T/C; experiment: NCI In Vivo Anticancer Drug Screen. Data for tumor model P388 Leukemia (intraperitoneal) in CD2F1 (CDF1) mice; conditions: endpoint: median survival time; dose: 30.0 mg/kg/injection; schedule: Q01DX005 (ip); vehicle: Klucel (hydroxypropylcellulose) (HPC); higher = longer survival
Toxic doses and inconclusive results are not listed.
Assay readout: T/C

molecule="CC1(C)N=C(N)N=C(N)N1c1ccc(C(C#N)CCCc2ccccc2)cc1 (stereo unspecified)" measured="103 % of control"
molecule=CSC(=S)/C(=C/Nc1ncccn1)c1ccccc1 measured="87 % of control"
molecule="CCC(C)/C(=C\\C#N)NCCCCCCN/C(=C/C#N)C(C)CC (stereo unspecified)" measured="86 % of control"
molecule="COC(=O)/C=C(/Sc1nc(Cl)c(Cl)nc1N)C(=O)OC (tested in a mixture with another compound)" measured="113 % of control"
molecule=CCOc1ccc(NC(=O)C2=C(C)NC(C)=C(C(=O)Nc3ccc(OCC)cc3)C2c2cccc([N+](=O)[O-])c2)cc1 measured="104 % of control"

Next, consider the following molecule.
Prompt line: Please indicate T/C recorded for N#Cc1ccc(NC(=O)Nc2ccc(Cc3ccc(NC(=O)Nc4ccc(C#N)cc4)cc3)cc2)cc1
Response line: 90 % of control

---

tested on: P388 leukemia ip, CD2F1 mice, survival T/C; test: NCI In Vivo Anticancer Drug Screen. Data for tumor model P388 Leukemia (intraperitoneal) in CD2F1 (CDF1) mice; conditions: endpoint: median survival time; dose: 12.5 mg/kg/injection; schedule: Q01DX009 (ip); vehicle: other; higher = longer survival
Toxic doses and inconclusive results are not listed.
Could you please report measured T/C for the items listed next?

compound=O=NN(CC(=O)OCc1ccccc1)NC(=O)OCc1ccccc1 assay_readout=T/C measured="96 % of control"
compound=Brc1ccc(Nc2ccccn2)cc1 assay_readout=T/C measured="108 % of control"
compound="CCOC(=O)C1CCc2ccc(OC)c(OC)c2C1 (stereo not given)" assay_readout=T/C measured="100 % of control"
compound="CC(=O)OCC1OC(OC(C)=O)C(NC(=O)CNC(=O)OCc2ccccc2)C(OC(C)=O)C1OC(C)=O (stereo not given)" assay_readout=T/C measured="107 % of control"

Continue with the compound presented below.
Prompt line: Give T/C for the following compound: CCOc1cccc2c1C(=O)c1c(OCC)c3c(c(OCC)c1C2=O)CC(O)(C(C)=O)CC3O (stereo not given)
Response line: 96 % of control

---

system: P388 leukemia ip, CD2F1 mice, survival T/C; test: NCI In Vivo Anticancer Drug Screen. Data for tumor model P388 Leukemia (intraperitoneal) in CD2F1 (CDF1) mice; conditions: endpoint: median survival time; dose: 50.0 mg/kg/injection; schedule: Q01DX009 (ip); vehicle: suspension in saline; higher = longer survival
Toxic doses and inconclusive results are not listed.
Assay readout: T/C

smiles_notation=NCCc1cc(=O)[nH]o1 measured="90 % of control"

For each listed entry, give its T/C.
1. FS(F)(F)(F)(F)c1cccc(NC(=S)SCc2ccc3c(c2)OCO3)c1
2. O=[N+]([O-])c1ccc(/C(=C/c2ccc(Cl)cc2Cl)S(=O)(=O)C(Cl)Cl)o1

Response line:
102 % of control
86 % of control

# batch size: 2; output T/C per entry
1. CCOc1cc(=O)cc2n(-c3cc(OCC)c(OC(C)=O)c(OCC)c3)c3ccccc3nc1-2
2. COc1ccc(CSC(=S)Nc2ccc(Cl)c([N+](=O)[O-])c2)cc1

Response line:
["99 % of control", "108 % of control"]

---

system: P388 leukemia ip, CD2F1 mice, survival T/C; experiment: NCI In Vivo Anticancer Drug Screen. Data for tumor model P388 Leukemia (intraperitoneal) in CD2F1 (CDF1) mice; settings: endpoint: median survival time; dose: 50.0 mg/kg/injection; schedule: Q01DX009 (ip); vehicle: Klucel (hydroxypropylcellulose) (HPC); higher = longer survival
Toxic doses and inconclusive results are not listed.
Assay readout: T/C

Worked cases, T/C given:
compound=CCOC(=O)C(=O)Nc1c(C(=O)OC)cc(C)c(C)c1C#N measured="93 % of control"
compound=COC(=O)c1ccc(-c2ccccc2)cc1 measured="89 % of control"
compound=COc1cccc(NC(=S)NCc2cccnc2)c1 measured="101 % of control"
compound=Cc1c(C)c2ccccc2[nH]c1=O measured="101 % of control"
compound="FC(F)(F)C(OCC1CO1)(c1ccccc1)C(F)(F)F (stereo not given)" measured="89 % of control"

Could I get T/C for every one of these entries?
1. O=CNc1ccc(Cl)cc1C(=O)c1ccccc1
2. Cc1c(N2CCCC2)cc2c(c1NC(=O)c1ccccc1Cl)C(C)(C)CC2(C)C
3. COc1cc(/C=C2/CCC/C(=C\c3ccc(OCC(O)COc4ccc(C(C)(C)c5ccc(OCC6CO6)cc5)cc4)c(OC)c3)C2=O)ccc1OCC(O)COc1ccc(C(C)(C)c2ccc(OCC3CO3)cc2)cc1 (stereo not given)
4. O/N=C(\C[P+](c1ccccc1)(c1ccccc1)c1ccccc1)c1ccccc1
5. O=C(O)CC1Sc2nc3c(n2C1(O)c1ccccc1)CCCC3 (stereo not given)
6. CCCCCCCCCCCCOC(=O)c1ccc(N)cc1

Response line:
1: 108 % of control; 2: 99 % of control; 3: 96 % of control; 4: 102 % of control; 5: 109 % of control; 6: 98 % of control

Working through the 4 compounds below one at a time, give T/C for each.
1. CC(=O)C(C)(NCc1ccccc1)c1ccccc1 (stereo not given)
2. Sc1cc2c(c3ccccc13)Nc1ccccc1S2
3. c1ccc2c(c1)ncc1cccn12
4. C(=N/c1ccccn1)/c1ccc2c(c1)OCO2

Response line:
1. 101 % of control
2. 92 % of control
3. 106 % of control
4. 100 % of control

# map each compound to its T/C
1. CCCCCCCCCCCCCN1CCS(=O)(=O)CC1
2. O=c1[nH]/c(=C/c2ccccc2)c(=O)[nH]/c1=C/C=C/c1ccccc1
3. COc1ccc(CCN2C(=O)C(=O)N(C3CCCCC3)C2=O)cc1OC
4. C=CCOC(CCC)OCC=C
5. CO/C=C(\C(=O)OC)c1ccccc1
6. CCOC(=O)C(Cc1ccc(N(CCCl)CCCl)cc1)NC(=O)C(N)CCC(=O)O (stereo not given)
7. CCCCCCCCCCCCCCN1CCS(=O)(=O)CC1

Response line:
98 % of control
104 % of control
93 % of control
97 % of control
100 % of control
92 % of control
89 % of control
